Test system: Nannizzia gypsea
Assay: Antifungal activity against Microsporum gypseum C115 after 15 days by agar dilution method
Type: functional
Details: 360 h
measure name: MIC (µg/mL)
Please respond with the number in µg/mL and leave the unit unwritten.

Worked cases, answers included:
| compound | MIC / µg/mL |
| --- | --- |
| C=CCc1cc(OC)c(OC(C)C(=O)c2ccc3c(c2)OCO3)c(OC)c1 (racemic) | 250 |
| C=CCc1cc(OC)c(O[C@@H](C)[C@@H](O)c2cc(OC)c(OC)c(OC)c2)c(OC)c1 (racemic) | 80 |

Suppose we examine the compound C=CCc1cc(OC)c(O[C@@H](C)[C@@H](O)c2ccc3c(c2)OCO3)c(OC)c1 (racemic) ; what MIC value has been reported?
40

Consider the compound shown here: C=CCc1cc(OC)c(O[C@@H](C)[C@@H](O)c2ccc(OC)c(OC)c2)c(OC)c1 (racemic) What is its recorded MIC?
150

What MIC value was documented for this compound, C=CCc1cc(OC)c(O[C@H](C)[C@@H](O)c2ccc3c(c2)OCO3)c(OC)c1 (racemic) ?
50

// lookup MIC for C/C=C/c1ccc(O[C@H](C)[C@@H](O)c2ccc(OC)c(OC)c2)c(OC)c1 (racemic)
50

Look up MIC: C/C=C/c1ccc(OC(C)C(=O)c2ccc(OC)c(OC)c2)c(OC)c1 (racemic)
250

Which measured MIC value corresponds to C=CCc1ccc(OC(C)C(=O)c2ccc(OC)c(OC)c2)c(OC)c1 (racemic) ?
250

Which MIC value is on record for C=CCc1cc(OC)c(O[C@H](C)[C@@H](O)c2cc(OC)c(OC)c(OC)c2)c(OC)c1 (racemic) ?
150

* * *

Test system: Trichophyton rubrum
Test: Antifungal activity against Trichophyton rubrum C113 after 15 days by agar dilution method
Format: functional
Settings: 360 h
Entries and their log10(MIC) values follow.
Transform log10 | Measure MIC | Unit µg/mL

| compound | log10(MIC) |
| --- | --- |
| C/C=C/c1ccc(O[C@H](C)[C@@H](O)c2ccc(OC)c(OC)c2)c(OC)c1 (racemic) | 1.30 |
| C=CCc1cc(OC)c(O[C@@H](C)[C@@H](O)c2ccc(OC)c(OC)c2)c(OC)c1 (racemic) | 1.60 |
| C=CCc1cc(OC)c(O[C@@H](C)[C@@H](O)c2ccc3c(c2)OCO3)c(OC)c1 (racemic) | 1.30 |
| C=CCc1cc(OC)c(O[C@@H](C)[C@@H](O)c2cc(OC)c(OC)c(OC)c2)c(OC)c1 (racemic) | 1.40 |
| C=CCc1ccc(O[C@@H](C)[C@@H](O)c2ccc(OC)c(OC)c2)c(OC)c1 (racemic) | 1.30 |

What value of log10(MIC) has been reported for the following compound? C/C=C/c1ccc(O[C@H](C)[C@@H](O)c2cc(OC)c(OC)c(OC)c2)c(OC)c1 (racemic)
1.70

Return reported log10(MIC); argument: C=CCc1ccc(O[C@H](C)[C@@H](O)c2ccc(OC)c(OC)c2)c(OC)c1 (racemic)
2.40

log10(MIC) for C=CCc1cc(OC)c(O[C@H](C)[C@@H](O)c2cc(OC)c(OC)c(OC)c2)c(OC)c1 (racemic) ?
1.40

// query log10(MIC) value for entry C=CCc1cc(OC)c(O[C@H](C)[C@@H](O)c2ccc(OC)c(OC)c2)c(OC)c1 (racemic)
1.90

Name the reported log10(MIC) value associated with the compound C=CCc1ccc(OC(C)C(=O)c2ccc(OC)c(OC)c2)c(OC)c1 (racemic)
2.40

Request the reported log10(MIC) associated with C/C=C/c1ccc(O[C@@H](C)[C@@H](O)c2cc(OC)c(OC)c(OC)c2)c(OC)c1 (racemic)
2.10

* * *

Tested on: Nannizzia gypsea
Experiment: Antifungal activity against Microsporum gypseum C115 after 15 days by agar dilution method
Format: functional
Settings: 360 h
Below is a list of entries, each paired with its recorded MIC value.

# lookup: MIC of C=CCc1ccc(O[C@H](C)[C@@H](O)c2ccc(OC)c(OC)c2)c(OC)c1 (racemic)
> 250 µg/mL

Data request, read-out MIC, for C/C=C/c1ccc(O[C@@H](C)[C@@H](O)c2ccc(OC)c(OC)c2)c(OC)c1 (racemic)
> 250 µg/mL

Endpoint output: MIC of C/C=C/c1ccc(OC(C)C(=O)c2cc(OC)c(OC)c(OC)c2)c(OC)c1 (racemic) . Value?
> 250 µg/mL

* * *

Test system: Nannizzia gypsea
Experiment: Antifungal activity against Microsporum gypseum C115 after 15 days by agar dilution method
Type: functional
Details: 360 h
The entries below come with measured MIC values attached.
Express it in µg/mL; write the number only.

Here's what some known entries look like.
| compound | experimental system | MIC / µg/mL |
| --- | --- | --- |
| C=CCc1ccc(O[C@@H](C)[C@@H](O)c2ccc(OC)c(OC)c2)c(OC)c1 (racemic) | Nannizzia gypsea | 60 |
| C/C=C/c1ccc(O[C@H](C)[C@@H](O)c2cc(OC)c(OC)c(OC)c2)c(OC)c1 (racemic) | Nannizzia gypsea | 60 |

Param item = C=CCc1cc(OC)c(O[C@H](C)[C@@H](O)c2ccc(OC)c(OC)c2)c(OC)c1 (racemic) ; retrieve measured MIC.
50

* * *

System: Nannizzia gypsea
Experiment: Antifungal activity against Microsporum gypseum C115 after 15 days by agar dilution method
Format: functional
Conditions: 360 h
Listed compounds paired with reported MIC

Solved cases below.
| compound | MIC |
| --- | --- |
| C/C=C/c1ccc(O[C@@H](C)[C@@H](O)c2cc(OC)c(OC)c(OC)c2)c(OC)c1 (racemic) | > 250 µg/mL |
| C=CCc1cc(OC)c(OC(C)C(=O)c2ccc(OC)c(OC)c2)c(OC)c1 (racemic) | > 250 µg/mL |

Let's switch to this compound now.
Requested read-out MIC, target or system Nannizzia gypsea, entry C=CCc1cc(OC)c(OC(C)C(=O)c2cc(OC)c(OC)c(OC)c2)c(OC)c1 (racemic)
> 250 µg/mL
